Test system: HUVECs (human umbilical vein endothelial cells)
Experiment description: Boyden chamber cell migration assay with HUVECs
Type: cell-based
Condition context: chamber cell migration; average of three experiments; read-out: IC50 (HUVEC)
Examples of compounds with documented pIC50 follow.
pIC50 here is simply -log10 of the concentration when that concentration is written in mol/L.

Some solved cases for reference:
INSERT INTO assay_data (compound, assay_value) VALUES
  ('COC1C=CCCC=CC(=O)OCC(C)=CC(C)C1O (stereo not shown)', 6.82),
  ('COC1C=CCCCCC(=O)CCC(C)=CC(C)C1O (stereo not shown)', 4.92),
  ('COC1C=CCCCCC(=O)OCC(C)=CC(C)C1O (stereo not shown)', 6.90);

Turning now to a further compound:
Lookup: Give the measured pIC50 for COC1C=CCCCCC(=O)NCC(C)=CC(C)C1O (stereo not shown)
Found: 4.74

----------
Tested on: cells
Experiment description: Chamber cell migration assay, CyQuant readout (preliminary, Table 3)
Assay type: cell-based
Condition context: 36 h, tested 200, 100, 50, 25, 10 μM
Readout kind: pIC50
Give only the number. pIC50 is defined as minus log10 of concentration in molar units.

Lookup: Tell me measured pIC50 for CO[C@H]1/C=C/CC/C=C/C(=O)O[C@H]([C@H](C)C(=O)CCCC2CC(=O)NC(=O)C2)/C(C)=C\[C@@H](C)[C@@H]1O please.
Found: 3.70
